Data provenance is PubChem BioAssay AID1159580.

- method.summary: chemical genetic growth profiling, strain panel (AID 1159580);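 further: tested at 20 µM; growth read once vehicle control cultures reached saturation at 30 °C; 1 = growth at the plate median or of vehicle wells; lower values mean less growth of the strain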
- experimental.context: S. cerevisiae deletion strains, growth OD, locus YDL040C, strain nat1, active compounds read low
In all, about 5,500 compounds went through this assay and about 2,000 (36%) were called active. About 18% were inconclusive and are not listed. The list shows a part of the results.
measured.endpoint: normalized growth

{"columns": ["molecule", "endpoint.result"],
 "data": [
  ["NC1(C(=O)O)CC1", 1.02],
  ["C[C@]12CCC3c4ccc(O)cc4CCC3C1CCC2=O (stereo partly drawn)", 1.01],
  ["CC12CCCCC1(Br)[N+](=O)N2[O-] (stereo not drawn)", 0.991],
  ["CC(=O)O[C@H]1C[C@@H](OC(C)=O)C(C)(C)C2C[C@@H](O)[C@]3(C)C(CC[C@@]4(C)[C@H](c5ccoc5)OC(=O)[C@H]5O[C@]543)[C@]21C (stereo partly drawn)", 0.976],
  ["CC1(C)C(=O)[C@@H]2O[C@@H]2[C@@]2(C)C1C[C@@H](O)[C@]1(C)C2CC[C@@]2(C)[C@H](c3ccoc3)OC(=O)C3OC321 (stereo partly drawn)", 0.998],
  ["CN[C@@H]1C(OC2[C@H](O[C@H]3[C@H](O)[C@@H](O)[C@H](N=C(N)N)[C@@H](O)[C@@H]3N=C(N)N)OC(C)[C@]2(O)CO)OC(CO)C(O)C1O (stereo partly drawn)", 0.999],
  ["CC(C)/C(O)=C1/C(=O)O[C@@H](c2ccoc2)[C@]2(C)C(O)[C@@H](O)[C@@]34OC5(C)OC67CC(C)(C(O)[C@]6(O)[C@@H](O)[C@]3(O5)C12)[C@H](CC(=O)O)[C@]74C (stereo partly drawn)", 0.995],
  ["CC(=O)O[C@@H]1CC2C(C)(C)[C@H](O)C=C[C@]2(C)C2CC[C@@]3(C)[C@H](c4ccoc4)OC(=O)C4OC43[C@@]21C (stereo partly drawn)", 1.02]
]}

###

- method.summary: chemical genetic growth profiling, strain panel (AID 1159580);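 further: tested at 20 µM; growth read once vehicle control cultures reached saturation at 30 °C; 1 = growth at the plate median or of vehicle wells; lower values mean less growth of the strain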
- experimental.context: S. cerevisiae deletion strains, growth OD, locus YNL020C, strain ARK1
Screen size: about 5,500 compounds; about 2,000 (36%) were called active. Not shown: some 18% with an inconclusive outcome. Cut-off read from the data, not from the text of the source: active = normalized growth mostly below about 0.91 (no sharp cut-off); inconclusive = no clear call, values can overlap the other calls; inactive = mostly above about 0.92. Some of the results follow.
Classes used: 1 (active), 0 (inactive)

{"columns": ["smiles.input", "group"],
 "data": [
  ["Clc1ccccc1-c1csc(-c2cccnc2)n1", 0],
  ["Clc1ccccc1-c1csc(-c2ccncc2)n1", 0],
  ["COc1ccc(-c2cn3cc(C)ccc3n2)cc1", 0],
  ["O=S(=O)(NCc1ccc(C(F)(F)F)cc1)c1cccc(C(F)(F)F)c1", 0],
  ["Clc1cc(Cl)cc(C=NCc2ccccc2)c1", 1],
  ["Brc1ccc(-c2csc(-c3cccnc3)n2)cc1", 0],
  ["Clc1ccc(CSc2nccn2-c2cc(Cl)ccc2Cl)cc1", 0],
  ["O=C(Nc1cc(Cl)ccc1O)c1ccccc1CSc1ccc(Cl)cc1", 1],
  ["O=C(NNc1ccccc1)c1cc(-c2ccc(Cl)cc2)oc1C(F)(F)F", 1],
  ["Cc1ccc(S(=O)(=O)Nc2nc(-c3ccc(C)c(Cl)c3)c(C)s2)cc1", 0],
  ["COc1ccc(-c2csc(-c3cccnc3)n2)cc1", 0],
  ["Cc1ccc(-c2nc(NS(=O)(=O)c3cccc4nonc34)sc2C)cc1Cl", 0]
]}
